Measurement record for human FXa (Homo sapiens, UniProt P00742); quantity recorded: IC50.
Counter-ions that a name gives are not always drawn.

molecule | target.or.test.system | unit.descriptor | IC50
CN1CCc2nc(C(=O)N[C@@H](CNC(=O)C(=O)Nc3ccc(Br)cc3)C(=O)N(C)C)sc2C1 [Example 38, hydrochloride] | human FXa (Homo sapiens, UniProt P00742) | nM | 0.81
CN1CCc2nc(C(=O)N[C@@H](CNC(=O)C(=O)Nc3ccc(Cl)cc3)C(=O)N(C)C)sc2C1 [Example 39, hydrochloride] | human FXa (Homo sapiens, UniProt P00742) | nM | 0.86
CN1CCc2nc(C(=O)NC(CNC(=O)C(=O)Nc3ccc(Cl)cn3)C(=O)N3CCS(=O)(=O)CC3)sc2C1 (centres unmarked) [Example 2, hydrochloride] | human FXa (Homo sapiens, UniProt P00742) | nM | 7.1
CN1CCc2nc(C(=O)N[C@@H](CNC(=O)C(=O)Nc3ccc(Cl)s3)C(=O)N(C)C)sc2C1 [Example 40, hydrochloride] | human FXa (Homo sapiens, UniProt P00742) | nM | 1.3
CN1CCc2nc(C(=O)N[C@@H](CNC(=O)C(=O)Nc3ccc(Cl)cc3)c3cnco3)sc2C1 [Example 62, hydrochloride] | human FXa (Homo sapiens, UniProt P00742) | nM | 1.8
CN1CCc2nc(C(=O)N[C@@H](CNC(=O)C(=O)Nc3ccc(Br)cn3)C(=O)N(C)C)sc2C1 [Example 37, hydrochloride] | human FXa (Homo sapiens, UniProt P00742) | nM | 1.5
C[C@@H](NC(=O)C(=O)Nc1ccc(Cl)cn1)[C@H](NC(=O)c1nc2c(s1)CN(C)CC2)C(=O)N(C)C [Example 66, hydrochloride] | human FXa (Homo sapiens, UniProt P00742) | nM | 2
CN1CCc2nc(C(=O)N[C@@H](CNC(=O)C(=O)Nc3ccc(Cl)cn3)C(=O)N(C)C)sc2C1 [Example 26, hydrochloride] | human FXa (Homo sapiens, UniProt P00742) | nM | 2.4
